Tested on: angiotensin-converting enzyme (ACE)
Assay Explanation: ACE-inhibitory activity in vivo (pressor response to angiotensin I in anesthetized normotensive rats)
Set-up: species or system rat
Assay Setup: percentage inhibition of ACE activity, 0.1 mg/kg i.v., angiotensin I 300 ng/kg i.v.
Procedure: ACE-inhibitory activity in vivo: Normotensive rats weighing 300-400 g were anesthetized with urethane (1.5 g/kg, s.c.), and angiotensin I (300 ng/kg) was injected into the femoral vein of the rats. The pressor response to angiotensin I was measured with a pressure transducer connected to the carotid artery. Then, a test compound was injected intravenously thereto at a dose of 0.1 mg/kg, and angiotensin I (300 ng/kg) was further injected intravenously at intervals. […]
ACE-inhibitory activity in vivo by entry:
Property Name: ACE-inhibitory activity in vivo

1) CCOC(=O)CCN(CC)C(=O)N1Cc2ccccc2C[C@H]1C(=O)O
> 60%
2) CCCCOC(=O)CCN(C(=O)N1Cc2ccccc2C[C@H]1C(=O)O)C(C)C
> 60%
3) CC(C)N(CCC(=O)O)C(=O)N1Cc2ccccc2C[C@H]1C(=O)O
> 60%
4) CCOC(=O)CCN(C)C(=O)N1Cc2ccccc2C[C@H]1C(=O)O
40 - 60%
5) CCOC(=O)CCN(C(=O)N1Cc2ccccc2C[C@H]1C(=O)O)C(C)C
> 60%
6) COC(=O)CCN(C(=O)N1Cc2ccccc2C[C@H]1C(=O)O)C(C)C
40 - 60%

====

System: spontaneously hypertensive rats (SHR)
Assay Explanation: Hypotensive activity in SHR (systolic blood pressure, tail plethysmographic technique)
Type: in vivo, rat
Assay Setup: 50 mg/kg orally; SHR fasted overnight; systolic
Description: Hypotensive activity in SHR: A test compound (dose: 50 mg/kg) suspended in an aqueous carboxymethylcellulose solution was administered orally to spontaneously hypertensive rats (SHR) fasted overnight. The systolic blood pressure of the rats was measured by the tail plethysmographic technique (The Journal of Laboratory and Clinical Medicine 78(1971), page 957). The hypotensive activity of the test compound was estimated from the decreased level of blood pressure.
Structures can show the parent of a compound that is named as a salt.
Property Name: Decrease in blood pressure (-Δ mm Hg)

1) CCCCOC(=O)CCN(CC)C(=O)N1Cc2ccccc2C[C@H]1C(=O)O [calcium salt]
24
2) COC(=O)CCN(C(=O)N1Cc2ccccc2C[C@H]1C(=O)O)C(C)C
36
3) CCOC(=O)CCN(CC)C(=O)N1Cc2ccccc2C[C@H]1C(=O)O.NCCCC[C@H](N)C(=O)O
25
4) CCOC(=O)CCN(CC)C(=O)N1Cc2ccccc2C[C@H]1C(=O)O [calcium salt]
26

====

Target System: angiotensin-converting enzyme (ACE) isolated from pig's renal cortex (Sus scrofa)
Construct: isolated from pig's renal cortex; from tissue; host or cells: pig renal cortex
Sequence (F1RRW5 34-1309): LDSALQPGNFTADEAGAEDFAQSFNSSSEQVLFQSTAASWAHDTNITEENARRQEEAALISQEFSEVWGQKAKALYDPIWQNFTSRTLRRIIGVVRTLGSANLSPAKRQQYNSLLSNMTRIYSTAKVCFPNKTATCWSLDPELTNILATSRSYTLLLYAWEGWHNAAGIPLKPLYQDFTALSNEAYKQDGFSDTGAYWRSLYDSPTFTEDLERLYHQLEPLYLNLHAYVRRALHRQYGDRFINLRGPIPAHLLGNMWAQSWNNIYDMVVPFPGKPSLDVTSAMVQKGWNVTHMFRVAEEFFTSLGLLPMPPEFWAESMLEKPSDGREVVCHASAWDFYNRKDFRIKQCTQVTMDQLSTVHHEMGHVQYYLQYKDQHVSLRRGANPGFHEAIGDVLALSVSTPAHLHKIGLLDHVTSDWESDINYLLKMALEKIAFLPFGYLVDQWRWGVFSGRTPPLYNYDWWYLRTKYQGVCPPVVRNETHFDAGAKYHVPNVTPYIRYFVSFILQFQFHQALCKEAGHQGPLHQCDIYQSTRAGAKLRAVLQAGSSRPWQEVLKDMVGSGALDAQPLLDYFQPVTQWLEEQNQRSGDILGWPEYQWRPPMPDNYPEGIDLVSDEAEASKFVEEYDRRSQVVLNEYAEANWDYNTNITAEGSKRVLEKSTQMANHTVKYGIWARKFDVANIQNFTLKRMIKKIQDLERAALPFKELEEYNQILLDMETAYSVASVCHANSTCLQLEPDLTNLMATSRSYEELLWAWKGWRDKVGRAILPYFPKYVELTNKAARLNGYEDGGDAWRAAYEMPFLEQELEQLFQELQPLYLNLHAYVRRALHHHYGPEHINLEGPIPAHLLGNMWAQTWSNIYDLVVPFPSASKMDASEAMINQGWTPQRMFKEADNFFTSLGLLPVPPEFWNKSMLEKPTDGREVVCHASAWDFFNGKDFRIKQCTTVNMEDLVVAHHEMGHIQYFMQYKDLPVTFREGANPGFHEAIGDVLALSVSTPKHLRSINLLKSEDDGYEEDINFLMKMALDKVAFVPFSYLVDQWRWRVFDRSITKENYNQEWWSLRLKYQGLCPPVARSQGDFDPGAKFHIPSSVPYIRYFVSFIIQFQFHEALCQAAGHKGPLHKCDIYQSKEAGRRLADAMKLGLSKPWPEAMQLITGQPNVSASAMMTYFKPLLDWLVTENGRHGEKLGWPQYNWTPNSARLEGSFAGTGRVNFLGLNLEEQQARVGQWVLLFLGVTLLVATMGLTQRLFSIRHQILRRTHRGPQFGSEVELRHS
Assay Explanation: ACE-inhibitory activity in vitro (histidyl-leucine released from hippuryl-histidyl-leucine)
Assay type: biochemical
Assay Setup: dose required to induce 50% inhibition of the ACE activity; pig renal cortex ACE; 37° C., 20 minutes; read-out: ACE-inhibitory activity in vitro I50
pIC50: −log10 of the molar value. Structures can show the parent of a compound that is named as a salt.
Property Name: pIC50

1. C#CCN(CCC(=O)O)C(=O)N1Cc2ccccc2C[C@H]1C(=O)O
7.46
2. C=CCN(CCC(=O)O)C(=O)N1Cc2ccccc2C[C@H]1C(=O)O
6.85
3. CCN(CCC(=O)O)C(=O)N1Cc2ccccc2C[C@H]1C(=O)O [calcium salt]
7.96
4. CCN(CCC(=O)O)C(=O)N1Cc2ccccc2C[C@H]1C(=O)O [di-sodium salt]
7.68
5. CC(C)N(CCC(=O)O)C(=O)N1Cc2ccccc2C[C@H]1C(=O)O
7.54
6. CN(CCC(=O)O)C(=O)N1Cc2ccccc2C[C@H]1C(=O)O
6.21
7. CCCN(CCC(=O)O)C(=O)N1Cc2ccccc2C[C@H]1C(=O)O
6.26
8. O=C(O)CCN(C(=O)N1Cc2ccccc2C[C@H]1C(=O)O)C1CC1
6.85

Origin of the recorded values: patent US4294832A
